Measured kon of individual entries
- SYSTEM_TESTED: T1, rhCD39-ECD-His (R&D Systems) (human, UniProt P49961 38-478)
- T1 construct: Bought protein; that entry runs on through the C-terminal transmembrane and cytoplasmic residues; also called recombinant human CD39 extracellular domain; soluble recombinant human CD39 (ENTDP1) ECD; not shown: His tag
- T1 sequence: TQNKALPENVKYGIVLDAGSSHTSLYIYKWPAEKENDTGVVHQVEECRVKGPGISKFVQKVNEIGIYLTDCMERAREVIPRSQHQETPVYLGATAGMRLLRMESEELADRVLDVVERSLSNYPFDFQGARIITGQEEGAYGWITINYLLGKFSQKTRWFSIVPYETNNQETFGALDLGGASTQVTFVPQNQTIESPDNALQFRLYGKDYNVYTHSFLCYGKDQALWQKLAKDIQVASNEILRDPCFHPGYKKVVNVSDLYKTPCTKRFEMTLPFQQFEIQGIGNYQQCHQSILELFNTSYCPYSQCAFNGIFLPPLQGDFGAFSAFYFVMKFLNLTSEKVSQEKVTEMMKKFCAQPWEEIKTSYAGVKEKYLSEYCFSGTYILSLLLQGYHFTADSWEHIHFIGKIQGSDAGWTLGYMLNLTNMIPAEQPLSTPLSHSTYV
- METHOD_NOTES: BLI (Octet), IgG on anti-human Fc sensor, rhCD39-ECD-His 10-300 nM, 1:1 fit
All answers are understood in M⁻¹ s⁻¹, so give the number only.

27589 (antibody, V domains shown) VH: QVQLVQSGAEVKKPGSSVKVSCKASGGTFSSYAISWVRQAPGQGLEWMGGIIPIFGTANYAQKFQGRVTITADESTSTAYMELSSLRSEDTAVYYCARDSGYHRHYSDYWGQGTLVTVSS VL: DIQMTQSPSTLSASVGDRVTITCRASQSISSWLAWYQQKPGKAPKLLIYKASSLESGVPSRFSGSGSGTEFTLTISSLQPDDFATYYCQQYGLFPITFGGGTKVEIKR    202000

Now take the following binder into account.
[in] Provide kon value for the following binder: 31861 (antibody, V domains shown) VH: QVQLVQSGAEVKKPGSSVKVSCKASGGTFGSYGISWVRQAPGQGLEWMGSIIPEFGIANYAQKFQGRVTITADESTSTAYMELSSLRSEDTAVYYCARESGTYRDHRLDVWGQGTMVTVSS VL: EIVMTQSPATLSVSPGERATLSCRASQSVGSNLAWYQQKPGQAPRLLIYGASTRATGIPARFSGSGSGTEFTLTISSLQSEDFAVYYCQQYLLWPLTFGGGTKVEIKR
[out] 246000
